# SYSTEM NAME: PDL1, Q9NZQ7
# Sequence (Q9NZQ7 whole entry): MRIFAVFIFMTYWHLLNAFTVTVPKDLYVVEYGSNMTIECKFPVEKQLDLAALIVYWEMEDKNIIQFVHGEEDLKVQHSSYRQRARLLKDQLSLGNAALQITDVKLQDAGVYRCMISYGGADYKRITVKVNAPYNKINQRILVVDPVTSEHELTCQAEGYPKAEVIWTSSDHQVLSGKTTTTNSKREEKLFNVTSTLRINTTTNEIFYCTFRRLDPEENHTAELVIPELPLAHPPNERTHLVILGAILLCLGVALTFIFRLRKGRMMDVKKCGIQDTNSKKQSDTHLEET
MEASUREMENT KIND: binding in a display sort

d8r1_design_ppi_78_dldesign_0_cycle1_af2pred (protein) SMKKEEAKKVAEEARKAAKEAEELAKKIGDAKLAQQAKNIAAGADKAAEFGSLNMVKAFLREAKKLKEEAKKKLA
not found (inactive)
d8r1_design_ppi_1136_dldesign_0_cycle1_af2pred (protein) AAEKEARDLAAADNAIALVKKMLEAGVSPENALATAEAAAALLSPAARARLLAAARAIVAAHEAAKAAAAA
not found (inactive)

The values you see were collected from paper PMC13494018.
